// Atrial EC25 lookup, one value per entry
Test system: Porcine atria myofibrils (atrial myosin ATPase)
assay_procedure: Myofibril ATPase assay, porcine atria myofibrils
Type: biochemical
conditions_used: porcine atria myofibrils; Y75 value (75% activity relative to no compound)
I only need the number, in µM, no unit after it.

Consider the following illustrative entries.
compound: Cc1c(CC(=O)N[C@H](C)c2ccc(C#N)cc2F)c(=O)[nH]c2ccc(C(F)(F)F)nc12 (single isomer, unassigned)
measurement_target: Porcine atria myofibrils (atrial myosin ATPase)
Atrial EC25 / µM: 2.16

compound: Cc1c(C(C)C(=O)N[C@@H](C)c2ccc(F)cc2F)c(=O)[nH]c2ccncc12 (stereo partly drawn)
measurement_target: Porcine atria myofibrils (atrial myosin ATPase)
Atrial EC25 / µM: 34.65

compound: Cc1c(CC(=O)N[C@H](C)c2ccc(C#N)cn2)c(=O)[nH]c2ccnc(C#N)c12
measurement_target: Porcine atria myofibrils (atrial myosin ATPase)
Atrial EC25 / µM: 13.10

compound: CC#Cc1nccc2[nH]c(=O)c(CC(=O)N[C@@H](C)c3ccc(F)cc3F)c(C)c12
measurement_target: Porcine atria myofibrils (atrial myosin ATPase)
Atrial EC25 / µM: 0.99

compound: Cc1c(CC(=O)N[C@@H](CO)c2ccc(C#N)cc2F)c(=O)[nH]c2ccc(C(F)(F)F)nc12
measurement_target: Porcine atria myofibrils (atrial myosin ATPase)
Atrial EC25 / µM: 0.12

compound: Cc1c(CC(=O)N[C@H](CO)c2ncccc2F)c(=O)[nH]c2ccnc(C#N)c12 (single isomer, unassigned)
measurement_target: Porcine atria myofibrils (atrial myosin ATPase)
Atrial EC25 / µM: 100.00

compound: Cc1c(CC(=O)N[C@H](CO)c2ccc(F)cc2F)c(=O)[nH]c2ccnc(OC3CC3)c12
measurement_target: Porcine atria myofibrils (atrial myosin ATPase)
Atrial EC25 / µM: 100.00

compound: Cc1nccc2[nH]c(=O)c(CC(=O)N[C@H](CO)c3cccnc3)c(C)c12 (single isomer, unassigned)
measurement_target: Porcine atria myofibrils (atrial myosin ATPase)
Atrial EC25 / µM: 100.00

compound: C[C@H](NC(=O)[C@@H](C)c1cc2nc(C#N)ccc2[nH]c1=O)c1ccc(F)cc1F (single isomer, unassigned)
measurement_target: Porcine atria myofibrils (atrial myosin ATPase)
Atrial EC25 / µM: 100.00

compound: Cc1c(CC(=O)N[C@@H](C)c2ccc(F)cc2F)c(=O)[nH]c2cnnc(O)c12
measurement_target: Porcine atria myofibrils (atrial myosin ATPase)
Atrial EC25 / µM: 100.00

Short answer for Cc1nccc2[nH]c(=O)c(C(F)(F)C(=O)N[C@H](C)c3ncc(C#N)cc3F)c(C)c12 (single isomer, unassigned) : Atrial EC25 was 4.94

Short answer for Cc1nccc2[nH]c(=O)c(CC(=O)N[C@@H]3COc4cc(F)cc(F)c43)c(C)c12 (single isomer, unassigned) : Atrial EC25 was 0.08

Short answer for Cc1c(CC(=O)N[C@@H](CO)c2ncc(C#N)cc2F)c(=O)[nH]c2ccnc(C#N)c12 (single isomer, unassigned) : Atrial EC25 was 0.13
